# assay-overview: Absorption and emission spectra of dyes in different solvents
# Assay type: physicochemical
# test-context: solvent Methanol
Each entry below carries its recorded λabs1.
// note: answer is a bare numeric in nm

Use these answered entries as a reference point.
CCN1/C(=C/C=C/C(=C/C2=[N+](CC)c3ccccc3C2(C)C)NCc2ccccc2)C(C)(C)c2ccccc21 [Dye IIe] = 517
CCN1/C(=C/C=C/C(N)=C/C2=[N+](CC)c3ccccc3C2(C)C)C(C)(C)c2ccccc21 [Dye IIa] = 528
CCN1/C(=C/C=C/C(=C/C2=[N+](CC)c3ccccc3C2(C)C)NCCO)C(C)(C)c2ccccc21 [Dye IIb] = 519

Q: Need λabs1 of CCN1/C(=C/C=C/C(=C/C2=[N+](CC)c3ccccc3C2(C)C)Nc2ccccc2)C(C)(C)c2ccccc21 [Dye IIg] , thanks.
Result: 561

###

The following compounds are shown together with reported Φ1 (fluorescence quantum yield) values.
# assay-overview: Measurement of fluorescence quantum yield (Rhodamine B in ethanol as reference)
# Type: physicochemical
# test-context: solvent THF
Just the number.

CCN1/C(=C/C=C/C(N)=C/C2=[N+](CC)c3ccccc3C2(C)C)C(C)(C)c2ccccc21 [Dye IIa] = 0.053
CCN1/C(=C/C=C/C(=C/C2=[N+](CC)c3ccccc3C2(C)C)Nc2ccccc2)C(C)(C)c2ccccc21 [Dye IIg] = 0.037
CCN1/C(=C/C=C/C(=C/C2=[N+](CC)c3ccccc3C2(C)C)NCc2ccccc2)C(C)(C)c2ccccc21 [Dye IIe] = 0.085
CCN(CC)C(=C\C1=[N+](CC)c2ccccc2C1(C)C)/C=C/C=C1/N(CC)c2ccccc2C1(C)C [Dye IId] = 0.030
CCN1/C(=C/C=C/C(=C/C2=[N+](CC)c3ccccc3C2(C)C)N(CCO)CCO)C(C)(C)c2ccccc21 [Dye IIc] = 0.109
CCN1/C(=C/C=C/C(=C/C2=[N+](CC)c3ccccc3C2(C)C)NCCO)C(C)(C)c2ccccc21 [Dye IIb] = 0.085

As a next step, examine the compound that follows.
Q: What Φ1 (fluorescence quantum yield) value was documented for this compound, CCN1/C(=C/C=C/C(=C/C2=[N+](CC)c3ccccc3C2(C)C)N(Cc2ccccc2)Cc2ccccc2)C(C)(C)c2ccccc21 [Dye IIf] ?
Result: 0.036

###

Property: ε1 (molar extinction coefficient); scope: individual molecules
# assay-overview: Absorption and emission spectra of dyes in different solvents
# Assay type: physicochemical
# Design: scale not given here
# test-context: solvent Water
Provide the reading as a plain figure in cm^−1M.

CCN1/C(=C/C=C/C(=C/C2=[N+](CC)c3ccccc3C2(C)C)N(CCO)CCO)C(C)(C)c2ccccc21 = 1.8
CCN1/C(=C/C=C/C(=C/C2=[N+](CC)c3ccccc3C2(C)C)NCc2ccccc2)C(C)(C)c2ccccc21 = 2.3

Q: What measured ε1 (molar extinction coefficient) goes with CCN1/C(=C/C=C/C(=C/C2=[N+](CC)c3ccccc3C2(C)C)N(Cc2ccccc2)Cc2ccccc2)C(C)(C)c2ccccc21 ?
Result: 2.5

###

# assay-overview: Absorption and emission spectra of dyes in different solvents
# Format: physicochemical
# test-context: solvent Ethanol
# λabs1 values compiled below
Kindly provide the numeric value in nm only, without the unit symbol.

CCN1/C(=C/C=C/C(N)=C/C2=[N+](CC)c3ccccc3C2(C)C)C(C)(C)c2ccccc21 [Dye IIa] = 527
CCN1/C(=C/C=C/C(=C/C2=[N+](CC)c3ccccc3C2(C)C)NCc2ccccc2)C(C)(C)c2ccccc21 [Dye IIe] = 519
CCN1/C(=C/C=C/C(=C/C2=[N+](CC)c3ccccc3C2(C)C)N(CCO)CCO)C(C)(C)c2ccccc21 [Dye IIc] = 521
CCN1/C(=C/C=C/C(=C/C2=[N+](CC)c3ccccc3C2(C)C)N(Cc2ccccc2)Cc2ccccc2)C(C)(C)c2ccccc21 [Dye IIf] = 528
CCN1/C(=C/C=C/C(=C/C2=[N+](CC)c3ccccc3C2(C)C)NCCO)C(C)(C)c2ccccc21 [Dye IIb] = 521

Q: Using the record for CCN1/C(=C/C=C/C(=C/C2=[N+](CC)c3ccccc3C2(C)C)Nc2ccccc2)C(C)(C)c2ccccc21 [Dye IIg] , report its λabs1.
Result: 563

Q: What does the record list as λabs1 for CCN(CC)C(=C\C1=[N+](CC)c2ccccc2C1(C)C)/C=C/C=C1/N(CC)c2ccccc2C1(C)C [Dye IId] ?
Result: 516
